Molecular target: T1, biotinylated goat anti-human kappa light chain
T1 construct: positive control of the ELISA
Experiment: ELISA, positive control; further: test concentration or dose not given here
Protocol: The binding of ACVR2A-specific monoclonal antibodies to human ACVR2A, mouse ACVR2A, biotinylated goat anti-human kappa light chain (positive control) and human Fc (negative control) were determined by ELISA.
reported endpoint: optical density (OD)
State the answer as a number, implicitly in OD.

Returns the measured optical density for the input binder. Input: 365_B04 (antibody, V domains shown, Group I) VH: EVQLLESGGGLVQPGGSLRLSCAASGFTFSSYGMHWVRQAPGKGLEWVASINYNSGYTSYADSVKGRFTISRDNSKNTLYLQMNSLRAEDTAVYYCARAANWHDTALDYWGQGTLVTVSS VL: DIQMTQSPSSLSASVGDRVTITCRASQSILTYLNWYQQKPGKAPKLLIYAATSRHSGVPSRFSGSGSGTDFTLTISSLQPEDFATYYCQQSDESPLTFGGGTKVEIK
3.12

Sample 371_F07 (antibody, V domains shown, Group II) VH: EVQLLESGGGLVQPGGSLRLSCAASGFTFSSYGMHWVRQAPGKGLEWVAGINYNGGYTSYADSVKGRFTISRDNSKNTLYLQMNSLRAEDTAVYYCARAATWHDTHLDYWGQGTLVTVSS VL: DIQMTQSPSSLSASVGDRVTITCRASQSILTYLNWYQQKPGKAPKLLIYAATSLASGVPSRFSGSGSGTDFTLTISSLQPEDFATYYCQQSDSNPLTFGGGTKVEIK — what was its optical density?
3.34

Param item = 368_C09 (antibody, V domains shown, Group I) VH: EVQLLESGGGLVQPGGSLRLSCAASGFTFSSYSMHWVRQAPGKGLEWVSNINYNGGYTGYADSVKGRFTISRDNSKNTLYLQMNSLRAEDTAVYYCARAANWHDTHLDYWGQGTLVTVSS VL: DIQMTQSPSSLSASVGDRVTITCRASQSILTYVNWYQQKPGKAPKLLIYAATSLASGVPSRFSGSGSGTDFTLTISSLQPEDFATYYCQQSYDLPLTFGGGTKVEIK ; retrieve measured optical density.
3.46

Can you share its optical density? I mean this binder: 366_C05 (antibody, V domains shown, Group II) VH: EVQLLESGGGLVQPGGSLRLSCAASGFTFDDYGMHWVRQAPGKGLEWVSSINYNGGYTGYADSVKGRFTISRDNSKNTLYLQMNSLRAEDTAVYYCARAATWHDTHLDYWGQGTLVTVSS VL: DIQMTQSPSSLSASVGDRVTITCRASQSIISYLNWYQQKPGKAPKLVIYAATSRASGVPSRFSGSGSGTDFTLTISSLQPEDFATYYCQQSYDSPLTFGGGTKVEIK
3.4

Any idea what optical density was measured for 368_B08 (antibody, V domains shown, Group I) VH: EVQLLESGGGLVQPGGSLRLSCAASGFTFDSYGMNWVRQAPGKGLEWVSSINYNGGYTSYADSVKGRFTISRDNSKNTLYLQMNSLRAEDTAVYYCARAANWHDTHLDYWGQGTLVTVSS VL: DIQMTQSPSSLSASVGDRVTITCRASQSILTYVNWYQQKPGKAPKLVIYAATSRASGVPSRFSGSGSGTDFTLTISSLQPEDFATYYCQQSYENPLTFGGGTKVEIK ?
3.21

Entry under review: 366_G02 (antibody, V domains shown, Group II) VH: EVQLLESGGGLVQPGGSLRLSCAASGFTFDSYGMHWVRQAPGKGLEWVSSINYNGGYTSYADSVKGRFTISRDNSKNTLYLQMNSLRAEDTAVYYCARAATWHDTHLDYWGQGTLVTVSS VL: DIQMTQSPSSLSASVGDRVTITCRASQSILTYLNWYQQKPGKAPKLLIYAATSRHSGVPSRFSGSGSGTDFTLTISSLQPEDFATYYCQQSDDNPLTFGGGTKVEIK . Reported optical density?
3.56

Quick one: optical density for 365_E12 (antibody, V domains shown, Group III) VH: EVQLLESGGGLVQPGGSLRLSCAASGFTFSDYGMNWVRQAPGKGLEWVSNINYNGGYTGYADSVKGRFTISRDNSKNTLYLQMNSLRAEDTAVYYCARGANWHDTALDYWGQGTLVTVSS VL: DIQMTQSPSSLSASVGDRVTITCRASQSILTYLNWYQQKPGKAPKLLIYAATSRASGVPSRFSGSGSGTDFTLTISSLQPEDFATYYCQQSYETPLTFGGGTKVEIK ?
3.52

Quick one: optical density for 369_A04 (antibody, V domains shown, Group II) VH: EVQLLESGGGLVQPGGSLRLSCAASGFTFDSYGMHWVRQAPGKGLEWVASINYNGGYKSYADSVKGRFTISRDNSKNTLYLQMNSLRAEDTAVYYCARAATWHDTHLDYWGQGTLVTVSS VL: DIQMTQSPSSLSASVGDRVTITCRASQSIVSYVNWYQQKPGKAPKLVIYAATSLASGVPSRFSGSGSGTDFTLTISSLQPEDFATYYCQQSYDLPLTFGGGTKVEIK ?
3.5

Item 367_B09 (antibody, V domains shown, Group I) VH: EVQLLESGGGLVQPGGSLRLSCAASGFTFDSYGMHWVRQAPGKGLEWVASINYNGGYTSYADSVKGRFTISRDNSKNTLYLQMNSLRAEDTAVYYCARAANWHDTALDYWGQGTLVTVSS VL: DIQMTQSPSSLSASVGDRVTITCRASQSILSYVNWYQQKPGKAPKLVIYAATSRASGVPSRFSGSGSGTDFTLTISSLQPEDFATYYCQQSYENPLTFGGGTKVEIK has what recorded optical density?
3.37

# lookup: optical density of 372_E02 (antibody, V domains shown, Group I) VH: EVQLLESGGGLVQPGGSLRLSCAASGFTFSSYGMNWVRQAPGKGLEWVASINYNGGYTSYADSVKGRFTISRDNSKNTLYLQMNSLRAEDTAVYYCARAANWHDTALDYWGQGTLVTVSS VL: DIQMTQSPSSLSASVGDRVTITCRASQSIISYVNWYQQKPGKAPKLVIYAATSRASGVPSRFSGSGSGTDFTLTISSLQPEDFATYYCQQSYDLPLTFGGGTKVEIK
3.58

Data credit: patent US20210380703A1
